Where these numbers come from: ChEMBL document CHEMBL1123812

Collected ED50 values appear next to each entry.
- Species on record: Mus musculus
- EXPERIMENT_DESCRIPTION: Antagonism of tetrabenazine (TBZ)-induced depression in mice measured for ptosis
- Format: functional
- EXPERIMENTAL_CONTEXT: Mus musculus; read-out: ED50

# annotated cases, reported ED50 shown
{"COMPOUND": "Br.c1ccc([C@@H]2CN3CCCCC[C@H]3c3ccccc32)cc1", "ED50": "~40 mg/kg"}
{"COMPOUND": "Br.Clc1ccc2c(c1)[C@H]1CCCN1C[C@H]2c1ccccc1", "ED50": "~0.5 mg/kg"}
{"COMPOUND": "Clc1ccc([C@@H]2CN3CCC[C@@H]3c3ccccc32)c(Cl)c1", "ED50": "~1 mg/kg"}

**Query** So what does the record say about ED50 for Br.Oc1ccccc1[C@@H]1CN2CCC[C@@H]2c2ccccc21 ?
**Result** ~2 mg/kg

**Query** Which ED50 is listed for Clc1ccc([C@@H]2CN3CCC[C@@H]3c3cc(Cl)ccc32)cc1 ?
**Result** ~4 mg/kg

**Query** I would be grateful if you could share the reported ED50 for c1ccc(CCN2CCCC2c2ccccc2)cc1 (stereo unspecified) .
**Result** ~10 mg/kg

**Query** What measured ED50 goes with Br.Clc1cccc2c1[C@H](c1ccccc1)CN1CCC[C@@H]21 ?
**Result** > 3 mg/kg

**Query** Which ED50 value is on record for N#Cc1ccc([C@@H]2CN3CCC[C@@H]3c3ccccc32)cc1 ?
**Result** ~2 mg/kg

**Query** May I ask what ED50 has been recorded for Br.Cn1ccc2c1[C@H](c1ccccc1)CN1CCC[C@@H]21 ?
**Result** > 30 mg/kg

**Query** Please look up its ED50: Br.Cn1ccc2c1[C@@H](c1ccccc1)CN1CCC[C@@H]21
**Result** ~0.75 mg/kg

**Query** Would you mind telling me what ED50 value was observed for Fc1cccc(Cl)c1[C@@H]1CN2CCC[C@@H]2c2ccccc21 ?
**Result** > 3 mg/kg
